From: the supplement of paper PMC10065799

- Tested on: c-Src;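 note: 11-residue human phosphosite peptides and single-mutation variants displayed on the E. coli surface, counted by deep sequencing, each peptide's frequency after selection divided by its frequency in the unselected input library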;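 note: frequency after pTyr selection over input frequency; kinase dosed for 20-30% of maximal phosphorylation in three min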
- Procedure Details: phosphorylation enrichment, bacterial display (enrichment ratio); higher = better substrate or ligand; peptides without Tyr show the background
Experimental Endpoint: phosphorylation enrichment
# respond with the number and nothing more

Illustrative cases are given below, each with its answer.
>>> df
                       sequence_data  assayed_target  experimental_value
0      SLFQFYFQQKG [CHKB_Y381_R377L]           c-Src               0.425
1  VNTMLYEKFTF [TEK_Y1108_T1106M_YF]           c-Src                6.07
2         HAVFVYDICHV [TWNK_Y508_YF]           c-Src                4.61
3     INNKMYDPKMN [ENPP1_Y280_D276N]           c-Src               0.449
4            DDHFTYSRYPW [LY75_Y888]           c-Src                 5.2
5            RNDQVYQPLRD [CD3D_Y149]           c-Src                4.45
6      APTSGYREFVH [IL4R_Y575_Q576R]           c-Src               0.397
7          MLNTNYHLPPS [MT-ATP8_Y33]           c-Src               0.354

Moving on to the next sequence.
**Q:** I have this sequence here, `TEGNEYVFRVA` , and I need its recorded phosphorylation enrichment.
**A:** 0.528
